MEASURED_ON: cellular tyrosinase in B16 cells (Mus musculus)
Sequence (P11344 19-533): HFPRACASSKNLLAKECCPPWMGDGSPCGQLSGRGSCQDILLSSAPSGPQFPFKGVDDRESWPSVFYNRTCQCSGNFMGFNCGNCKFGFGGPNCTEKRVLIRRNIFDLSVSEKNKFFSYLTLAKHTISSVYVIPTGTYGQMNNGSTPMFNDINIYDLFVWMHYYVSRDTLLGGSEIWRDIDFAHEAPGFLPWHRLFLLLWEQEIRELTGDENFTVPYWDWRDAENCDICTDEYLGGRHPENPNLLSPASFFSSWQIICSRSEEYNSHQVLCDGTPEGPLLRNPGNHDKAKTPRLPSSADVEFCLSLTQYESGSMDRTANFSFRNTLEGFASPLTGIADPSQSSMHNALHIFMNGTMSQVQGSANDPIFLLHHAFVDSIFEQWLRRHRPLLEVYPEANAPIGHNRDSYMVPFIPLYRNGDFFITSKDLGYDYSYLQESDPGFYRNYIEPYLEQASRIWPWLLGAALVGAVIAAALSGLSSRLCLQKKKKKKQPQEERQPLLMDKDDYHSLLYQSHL
EXPERIMENT_DESCRIPTION: Cellular tyrosinase activity assay on B16 cells
Assay type: cell-based
Protocol: The cellular tyrosinase inhibition activity on B16 cells was evaluated using EAE, FC, and FM2. B16 cells (C57BL/6, Resource No. RBRC-RCB0557) used in this study were prepared as described by Elloumi et al.. The cellular tyrosinase activity on B16 cells was evaluated as described by Kamei et al. with some modifications. […] The cellular tyrosinase inhibition was measured as follows:% Cellular tyrosinase inhibition = (ODcontrol − ODsample)/ODcontrol × 100(5)
ASSAY_ENDPOINT: IC50 (µM)
Express your answer in µM, writing the number without its unit.

[ask] Tell us which IC50 value is on record for C[C@@H]1O[C@@H](Oc2c(-c3ccc(O)c(O)c3)oc3cc(O)cc(O)c3c2=O)[C@H](O)[C@H](O)[C@H]1O [FC, quercetin-3-O-rhamnoside]
[reply] 7.49

Provenance of the data: paper PMC8838631
